Entry source: the DeepSol protein solubility set

# Experiment: soluble on expression in E. coli; label from the status in PepcDB or PDB records
Result type: soluble on expression in E. coli

Answered examples (4):
1) MPTPKAFALLGPTAGGKTALALKIAETLPVEIISLDSALVYRDMDIGTAKPSASERAFVPHHLIDIIPPTESYSAARFVEDCTRLVGEISSRGRFALIVGGTMMYFRALTQGLNDLPEADACLRADLDEQKQMYGLDFLYRTLQKVDPETACRLKPNDSQRIGRALEVYYLTGKPMSTHLGSLTSHTLPFDLHTAALIPENRARLHENIALRFHLMLEQGFIGEVENLRRRYPGLTAYSPAIRCVGYRQAWKYLDGKTDFPAFVEKGIAATRQLAKRQLTWLRKTPLDCVADPFSDCTSCTRLIEAAKRFFGA ... not soluble
2) MHILVTGFAPFDNQNINPSWEAVTQLEDIIGTHTIDKLKLPTSFKKVDNIINKTLASNHYDVVLAIGQAGGRNAITPERVAINIDDARIPDNDDFQPIDQAIHLDGAPAYFSNLPVKAMTQSIINQGLPGALSNSAGTFVCNHTLYHLGYLQDKHYPHLRFGFIHVPYIPEQVIGKPDTPSMPLEKIVAGLTAAIEAISNDEDLHLALGTTE ... not soluble
3) MAHHHHHHMLRFTVPALVVFQNAYAPRVLNRMTPDRMELTMLILKERKKKVRYLGSNFQGFNDRVHLFNAQGGVRRGTRYIIETHHNRIQFKHRSRNNSMVDVRAVKMAGSQYDSIGNYTRMTWDNSLCTTNLLSDPNFKRHFKNMPKEETIGVLEEWGVRYILLDEIRKP ... not soluble
4) MQILFNDQAMQCAAGQTVHELLEQLDQRQAGAALAINQQIVPREQWAQHIVQDGDQILLFQVIAGG ... soluble

Dear reader, for each entry below, please note its soluble on expression in E. coli.
1. MGSDKIHHHHHHMTEMNHSVPDDMLMGYASGSLAKAFDLVLATHVSLNDDARARLETFEALGGAILCGMDTVDVDDDSLEQTMAKIRGNAPIERPAPSEGLFPTPLQSMVGGDVDAVRWRSVGGGVKQCVLHSDDGGTVRLLSIAAGRAMPAHSHHGTEMTLVLQGAYRDDDGIFARGDLELADTDTNHQPVAEPGQDCICLVATNAKLKFQGLLPRIAQPFLGI
2. VGKEKREIELFVSDPELEAEVKAASEGKMKAAIKTEEKKAREAAIEEVKEEILESYKAKELENEAEILGEVAHILEMIEKDEMRRLISQDKIRPDGRKVNEIRP
3. MLAVGIVGLPNVGKSTLFNALTRANALAANYPFATIDKNVGVVPLEDERLYALQRTFAKGERVPPVVPTHVEFVDIAGLVKGAHKGEGLGNQFLAHIREVAAIAHVLRCFPDPDVVHVMGRVDPLEDAEVVETELLLADLATLERRLERLRKEARADRERLPLLEAAEGLYVHLQEGKPARTFPPSEAVARFLKETPLLTAKPVIYVANVAEEDLPDGRGNPQVEAVRRKALEEGAEVVVVSARLEAELAELSGEEARELLAAYGLQESGLQRLARAGYRALDLLTFFTAGEKEVRAWTVRRGTKAPRAAGEIHSDMERGFIRAEVIPWDKLVEAGGWARAKERGWVRLEGKDYEVQDGDVIYVLFNA

# output
["not soluble", "not soluble", "soluble"]
